Provenance of the data: PubChem BioAssay (NCI)

test system: PC-3 prostate; experiment: NCI-60 one-dose screen, 48 h (100 = growth as untreated, 0 = no growth, -100 = all killed); conditions: 10 µM unless noted
The panel holds about 83,000 compounds, 20% with a hit somewhere; the sample as a whole holds those more often.
observationType: growth (%)
Report the figure in % without appending any unit label.

Reported growth of Clc1cccc(Cl)c1/C=C/c1cc(/C=C/c2ccc(Br)cc2)c2ccccc2n1 : 96.2

Reported growth of CCCCCCCS(=O)(=O)N1CCCC(C(=O)Nc2nc3ccc(NC(=O)c4ccc(F)c(OC)c4F)cc3s2)C1 (configuration not stated) : 40.3

Reported growth of COc1cc(C2CC(c3cc(OC)c(OC)c(OC)c3)=NN2C(C)=O)ccc1OCc1ccc(F)cc1 (configuration not stated) : 27.7

Reported growth of COc1ccc(C2(SCCNCc3cc(N(C)C)ccn3)c3ccccc3C=Cc3ccccc32)cc1 : 13.8

Reported growth of COc1cc2c(c(OC)c1OC)C(=O)CC(c1cccc(NC(=O)c3cc(N)ccc3Cl)c1)O2 (configuration not stated) : 47.3

Reported growth of COc1ccc(-c2ccc(SCC(=O)Nc3ccc(S(N)(=O)=O)cc3Br)nn2)cc1 : 73.5

Reported growth of CCOC(=O)c1ccc(Nc2nc(NN)nc(-c3ccc(OC)cc3)c2C#N)cc1 : 85.2

Reported growth of COc1cc(-c2ccc(/C=N/NC(=O)c3[nH]c4ccc(Br)cc4c3-c3ccccc3)s2)cc(OC)c1OC : 76.5

Reported growth of CC(=O)Nc1ccc(-c2nc3cc(-c4ccc(O)cc4)ccc3n2C)cc1 : 74.6

Reported growth of CN(C)c1nc(NCCNS(=O)(=O)c2ccc(C3=Nc4c(N)nc(N)nc4NC(c4ccccc4)C3)cc2)nc(Nc2ccc(F)cc2)n1 (configuration not stated) : 26.5

Reported growth of CCCS(=O)(=O)N1CCCC(C(=O)Nc2nc3ccc(NC(=O)c4ccc(F)c(OC)c4F)cc3s2)C1 (configuration not stated) : 37.3

Reported growth of COc1ccc(NC(=O)c2sc3nc(C(C)C)ccc3c2N)cc1 : 71.7

Reported growth of Cn1cc(-c2cc(N)n3nc(-c4cn(C)c5ccccc45)cc3n2)c2cc(Br)ccc21 : -34

Reported growth of Cc1cc(=O)oc2cc(OCCOc3ccc(/C=C/C(=O)Nc4ccccc4N)cc3)ccc12 : 32.1

Reported growth of CC(/C=C1\SC(=S)N(CCCC(=O)NC(CC(C)C)C(=O)O)C1=O)=C\c1ccccc1 (configuration not stated) : 55.9

Reported growth of COc1c(F)ccc(C(=O)Nc2ccc3nc(NC(=O)C4CCCN(S(=O)(=O)c5ccc(Br)c(F)c5)C4)sc3c2)c1F (configuration not stated) : 62.6

Reported growth of CC(C)CSc1nc(NCCc2c[nH]c3ccccc23)c(C#N)c(-c2ccc(F)cc2)n1 : 26.2

Reported growth of COc1cccc(/C=C/C(=O)c2ccc(OC)c(S(N)(=O)=O)c2)c1 : 48

Reported growth of COc1cc(/C=C/C(=O)c2ccccc2)ccc1Oc1nc(Nc2ccc(F)cc2)nc(N(C)C)n1 : 30.2

Reported growth of C#CCOc1cc(N(CC)CC)ccc1C(C(=O)NC(C)(C)C)N(C(=O)C1CCc2cc(F)ccc2O1)c1ccccc1F (configuration not stated) : 13.5

Reported growth of CC1CN(c2oc(-c3ccc([N+](=O)[O-])cc3)nc2C#N)CC(C)O1 (configuration not stated) : 96.7

Reported growth of O=C(O)c1cccc(-c2ccc(/C=N/NC(=O)c3[nH]c4ccc(Br)cc4c3-c3ccccc3)o2)c1 : 86.4

Reported growth of COc1cccc(-c2nc(Nc3ccc(S(N)(=O)=O)cc3)c3ccccc3n2)c1 : 29.3

Reported growth of CCN1CCN(Cc2ccc(C(=O)Nc3cccc(C#Cc4cccc5[nH]nc(N)c45)c3)cc2C(F)(F)F)CC1 : -14

Reported growth of O=C(NNc1nc2cc(F)ccc2n2c(CN3CC4CNCC4C3)ccc12)c1ccncn1 (configuration not stated) : 32.6

Reported growth of N#Cc1c(-c2ccccc2Cl)cc(-c2c[nH]c3ccccc23)[nH]c1=O : 72.8

Reported growth of COc1ccc(C(=O)/C=C/c2cc3c(cc2Br)OCO3)cc1S(N)(=O)=O : 2.21

Reported growth of Cc1ccc([C@H]2C(C(=O)c3ccc(Cl)cc3)C3(N[C@@H]2c2ccccc2)C(=O)Nc2ccc(Cl)cc23)cc1 (some centres not stated) : 14

Reported growth of COc1ccc(/C=C/c2nc3ccccc3nc2Nc2cccc(C)c2)cc1 : 96.5

Reported growth of Cn1cc(-c2cc(N)n3nc(-c4cn(C)c5ccccc45)cc3n2)c2cc(Cl)ccc21 : -38.1

Reported growth of CC(=O)OCC1OC(OC2C(COC(C)=O)OC(n3cc(COc4ccc5ccc(=O)oc5c4)nn3)C(OC(C)=O)C2OC(C)=O)C(OC(C)=O)C(OC(C)=O)C1OC(C)=O (configuration not stated) : 98.8

Reported growth of COC(=O)/C=C/c1cccc2c1C(=O)NC(C)(c1cc3cc4ccccc4cc3oc1=O)N2 (configuration not stated) : 38.9
